Collected from the literature: IC50 of various molecules toward UniProt:Q02127.
measurement-type: IC50 (nM)

a. CCn1c(CO)nn(-c2cc3c(C(C)C)nc(-c4c(C)n[nH]c4C(F)(F)F)nc3cc2F)c1=O
b. CCC[C@H](C)N1CN(c2c(F)cccc2Cl)C(=O)c2cc(F)c(-n3nc(CO)n(CC)c3=O)cc21
c. CCn1c(CO)nn(-c2cc3c(C(C)C)cn([C@@H]4CCC[C@H]4C)c(=O)c3cc2F)c1=O (stereo in doubt)
Order the entries above by descending IC50. Use the labels to give the ranking in the order requested.
c, a, b

---

Collected from the literature: pIC50 of various compounds toward Dihydroorotate dehydrogenase (quinone), mitochondrial (Homo sapiens, UniProt Q02127).
pIC50: −log10 of the molar value.
measurement-type: pIC50

Illustrative cases are given below, each with its answer.
compound_structure=O=C(O)c1cccc2[nH]c(-c3c(F)c(F)c(-c4cccnc4)c(F)c3F)nc12 test_result=6.55
compound_structure=CCn1c(CO)nn(-c2cc3c(C(C)C)cc(OC4CCC4)nc3cc2F)c1=O test_result=5.97
compound_structure=CCn1c(CO)nn(-c2nc3c(C(C)C)cn(-c4ccccc4OC)c(=O)c3cc2F)c1=O test_result=9.05
compound_structure=CCn1c(CO)nn(-c2cc3c(C(C)C)cn(-c4cc(C)ncc4C)c(=O)c3cc2F)c1=O test_result=8.16
compound_structure=CCn1c(CO)nn(-c2cc(O[C@@H](C)C(F)(F)F)c(/C=C/c3cccnc3C(F)F)cc2F)c1=O test_result=7.58

1. Cc1cc(C(=O)O)c2[nH]c(-c3c(F)c(F)c(-c4cccc(F)c4)c(F)c3F)nc2c1
2. CCn1c(CO)nn(-c2cc3c(C(C)C)cc(-c4c[nH]nc4C(F)(F)F)nc3cc2F)c1=O
3. O=C(O)c1cccc2[nH]c(-c3c(F)c(F)c(-c4ccccc4)c(F)c3F)nc12
List by increasing pIC50. Use the labels to give the ranking in the order requested.
3, 2, 1
